Experiment: yeast display, Sf9 membrane polyspecificity reagent, FACS + sequencing; frameworks hold sequencing errors
RESULT_TYPE: polyreactivity (PSR sort gate)

QVQLVESGGGLVQAGGSLRLSCAASGYIFDRYAMGWYRQAPGKERELVAAITNGGRTYYADSVKGRFTISRDNAKNTVYLQMNSLKPEDTAVYYCAAVVYSRGYYWGQGTQVTVSS: high polyreactivity
QVQLVESGGGLVQAGGSLRLSCAASGRTYAAYAMGWYRQAPGKERELVAAISIGGSTNYADSVKGRFTISRDNAKNTVYLLMNSLKPEDTAVYYCAAGTWAVSKYLEWLEFYYWGKGTQVTVSS: high polyreactivity

Attribution: the nanobody polyreactivity screen of Harvey et al. (2022)
